Attribution: PubChem BioAssay (NCI)

Test system: HOP-92 NSCLC
Test: NCI tumour cell line growth inhibition, 48 h; in the data active = GI50 below about 0.43 µM; inactive = the rest
# valid calls are Yes = active, No = inactive; nothing else

Data request: I'd appreciate the recorded outcome for O=C1c2ccccc2C(=O)c2c1ccc(C(Br)Br)c2[N+](=O)[O-] from this test.
Data returned: No

Data request: Next molecule: COc1ccc(-c2nn(-c3cccc(Cl)c3)cc2C=C(C#N)C#N)cc1
Data returned: No

Data request: Next molecule: COc1cc(C)c(C(=O)O[C@H]2[C@H](O[C@H]3[C@@H](O)COC(O[C@H]4C[C@H]5[C@@H]6CC=C7C[C@@H](O)CC[C@]7(C)[C@H]6CC[C@]5(C)[C@H]4[C@H](C)C(=O)CCC(C)C)[C@@H]3OC(C)=O)OC[C@@H](O)[C@@H]2O)c(C)c1 (stereo partly drawn)
Data returned: Yes

Data request: Next molecule: O=C(NCc1cccnc1)/C(=C\c1ccc(Br)cc1)S(=O)(=O)c1ccccc1
Data returned: No

----------
# reported TGI; entries follow
Test system: HOP-18 NSCLC
Assay: NCI tumour cell line growth inhibition, 48 h

Field: example entries. Status: answers known.
# Compound, Target or test system, TGI
data = [
    ("Cc1c[nH]c2c1C13CC1CN(C(=O)c1cc4cc(NC(=O)c5cc6ccccc6o5)ccc4[nH]1)C3=CC2=O (centres undefined)", "HOP-18 NSCLC", "< 0.001 µM"),
    ("C=CN1C(=O)OC(c2ccccc2)C1c1ccccc1 (centres undefined)", "HOP-18 NSCLC", "> 100 µM"),
    ("Cc1nc(C)c(C(=O)Nc2cccc3c2C(=O)NC3=O)cc1C(=O)Nc1cccc2c1C(=O)NC2=O", "HOP-18 NSCLC", "> 100 µM"),
]

Data request: For the compound shown here, Cc1ccc2nc3c(C)c(Cl)c(=O)cc-3sc2c1 , give the reported TGI.
Data returned: 75.8 µM

Data request: Next compound: O=C1C2c3[nH]c4ccccc4c3[C@@H]3CCCCCCCCCCC3C2C(=O)N1c1ccccc1 (some centres undefined)
Data returned: 99.6 µM

Data request: Next compound: CC1=CC(O)C(O)C2(C)C1CC1OC(=O)C(O)C3C(C)C(O)C4(O)OCC13C42 (centres undefined)
Data returned: > 625 µM

Data request: Next compound: Cc1cccc(NC(=O)C(=O)C2C(=O)NC(=O)NC2=O)c1C
Data returned: > 100 µM

Data request: Next compound: O=C1c2ccccc2C(=O)c2c(NCCCNCCO)ccc(NCCCNCCO)c21
Data returned: 67.2 µM

Data request: Next compound: NC(Cc1cc(I)c(O)c(I)c1)C(=O)O (centres undefined)
Data returned: > 500 µM

----------
Test system: SK-MEL-5 melanoma
Experiment: NCI tumour cell line growth inhibition, 48 h
# TGI >= 10 µM gives yes (1), anything below gives no (0)

Look over these answered cases.
# Molecule, Qualitative label
rows = [
    ("CC(=O)OCC1OC(OC2C(COC(C)=O)OC(OCCC[S-])C(OC(C)=O)C2OC(C)=O)C(OC(C)=O)C(OC(C)=O)C1OC(C)=O.[Au+].c1ccc(CN2[CH-]N(Cc3ccccc3)C(c3ccccc3)=C2c2ccccc2)cc1 (stereo unspecified)", "no (0)"),
    ("CC(=O)Oc1ccc(OC(C)=O)c2ccccc12", "yes (1)"),
    ("CC#C[C@@]1(O)CCCC[C@@H]1O", "yes (1)"),
    ("CCOC(=O)c1ccc2nc(NC(=O)COC(=O)CSc3nc(C)cc(C)n3)sc2c1", "yes (1)"),
    ("COc1ccc(C(=O)c2cc(OC)c(OC)c(OC)c2)cc1OC(C)=O", "no (0)"),
    ("COc1ccc(SC2c3cc(OC)c(OC)cc3Oc3nc(N)c(C#N)c(N)c32)cc1 (stereo unspecified)", "no (0)"),
]

Data request: Say whether COC(=O)C[CH](C(=O)OC)[Ge]([CH3])([CH3])[S]c1ccccc1 (stereo unspecified) shows TGI of 10 µM or more.
Data returned: yes (1)

Data request: Next molecule: C/C(=C\c1ccc(Cl)cc1)C(C)(C)C(=O)O
Data returned: yes (1)

Data request: Next molecule: Cn1c2c([N+](=O)[O-])[se]nc2c(=O)n1-c1ccc([N+](=O)[O-])cc1
Data returned: yes (1)
